// data source = ChEMBL document CHEMBL5260852

test: Ratio of AUC in tumor to blood in C57BL/6 mouse xenografted mouse MC38 cells at 1.88 mg/kg,iv and measured after 72 hrs by LC-MS/MS analysis; type: ADME, organism-based; conditions: read-out: Ratio AUC
Property Label: Kp at 72 h
Provide a numeric answer; units are not to be included.

Asked: I am curious: what Kp at 72 h value has been reported for N#Cc1cnc2ccc(-c3c(-c4ccc(F)c(Cl)c4)ncn3CCO)nn12 ?
Given back: 1.1

---

experiment: Cmax in C57BL/6 mouse heart xenografted mouse MC38 cells at 1.88 mg/kg,iv and measured after 72 hrs by LC-MS/MS analysis; type: ADME, organism-based, MC-38; parameters: time 72 hrs, dose 1.88 mg/kg, route iv
Property Label: Cmax (nM)
Write the value in nM as a bare number.

Asked: Please report the recorded Cmax for N#Cc1cnc2ccc(-c3c(-c4ccc(F)c(Cl)c4)ncn3CCO)nn12 .
Given back: 2500
